Test system: NCI-H460 lung
Assay: NCI tumour cell line growth inhibition, 48 h
Property measured: TGI

The recorded TGI for entry CN(Cc1ccccc1)C1(N(C)Cc2ccccc2)CC1 equals > 100 µM

The recorded TGI for entry C=C1CO[C@@H]2C[C@@H]1CCC1(C)OC1CC/C(C)=C/CC[C@@]2(C)O (some centres undefined) equals 30.7 µM

The recorded TGI for entry Cc1ccc(Nc2nc(NS(=O)(=O)c3cc(C)c(Cl)cc3S)n[nH]2)cc1 equals > 100 µM

The recorded TGI for entry Nc1c(O)c(S(=O)(=O)O)c(O)c2c1C(=O)c1ccccc1C2=O equals 22 µM

The recorded TGI for entry Cc1oc2c(C)c3oc(=O)cc(C)c3cc2c1CN equals > 100 µM

The recorded TGI for entry C=CCc1cccc2cc(C(=O)Nc3nc(C45CC6CC(CC(C6)C4)C5)cs3)c(=O)oc12 equals > 100 µM

The recorded TGI for entry CCOC(=O)CCC(NC(=O)c1ccc(NCc2ccc3nc(-c4ccccc4)c(Cl)nc3c2)c2ccccc12)C(=O)OCC (centres undefined) equals > 100 µM

The recorded TGI for entry COc1ccc(/C=C/C(C(=O)O)C(=O)O)cc1 equals > 100 µM

The recorded TGI for entry O=c1c2cccnc2ncn1CCCN1CCOCC1 equals > 100 µM

* * *

For each of the molecules below, state its TGI.
Test system: ACHN renal
Assay: NCI tumour cell line growth inhibition, 48 h

The recorded TGI for entry Cc1ccc(C2(c3ccc(C)c(O)c3C)CCN(C)CC2)c(C)c1O equals > 100 µM

The recorded TGI for entry CC(C)(C)OC(=O)N1C/C=C\C(=O)C2(OCCO2)c2ccccc21 equals > 100 µM

The recorded TGI for entry Cc1nn(C)c(=O)c2nn(-c3ccccc3)c(C)c12 equals > 100 µM

The recorded TGI for entry CSc1nc(=O)c(C#N)c(-c2ccccc2)n1C1OC(COC(C)=O)C(OC(C)=O)C(OC(C)=O)C1OC(C)=O (stereo not given) equals > 100 µM

The recorded TGI for entry N#CI1OC(C(F)(F)F)(C(F)(F)F)c2ccccc21 equals 36.9 µM

* * *

For each of the compounds below, state its GI50.
Tested on: TK-10 renal
Assay: NCI tumour cell line growth inhibition, 48 h

The recorded GI50 for entry CC12CCC(O)CC1CCC1C2CCC2(C)C(C3=CC(=O)OC3)CCC12 (stereo not drawn) equals 19.6 µM

The recorded GI50 for entry Clc1ccc(Nc2nc3ccccc3c3occc23)cc1 equals 4.99 µM

The recorded GI50 for entry CCC(C)CC(CC)NCCN1CCN(C(CC)CC(C)CC)C1=S (stereo not drawn) equals 3.16 µM

* * *

For each of the molecules below, state its TGI.
System: SN12C renal
Assay: NCI tumour cell line growth inhibition, 48 h
State just the number; it will be interpreted in µM.

The recorded TGI for entry CCOC(=O)O/N=C1/C(c2c(O)[nH]c3ccccc23)=Nc2ccccc21 equals 23.2

The recorded TGI for entry C=C1C(=O)O[C@H]2[C@H]1CC/C(COC(=O)C(=O)c1cn(C)c3ccc(OC)cc13)=C\CC[C@@]1(C)O[C@@H]21 equals 12.8

The recorded TGI for entry Clc1cccc(N=C/C=C/Nc2cccc(Cl)c2)c1 equals 27

* * *

For each of the molecules below, state its TGI.
Test system: MDA-MB-435
Assay: NCI tumour cell line growth inhibition, 48 h

The recorded TGI for entry COc1ccc(-c2nn(-c3cccc(NC(=O)Nc4cccc(C(F)(F)F)c4)c3)cc2-c2ccncc2)cc1Cl equals 4.67 µM

The recorded TGI for entry CC(=O)N1C(OCc2ccccc2)CCN1c1ccccc1 (stereo unspecified) equals > 10 µM

The recorded TGI for entry CC(C)(C)OC(=O)NCCNC(=O)CN(CC(=O)O)C1CCCCC1N(CC(=O)O)CC(=O)O (stereo unspecified) equals > 100 µM

The recorded TGI for entry Clc1ccc(-c2nn3c(C45CC6CC(CC(C6)C4)C5)nnc3s2)cc1 equals > 100 µM

The recorded TGI for entry Cc1ccsc1/C=N/Nc1ccccn1 equals > 100 µM

The recorded TGI for entry COC(=O)[C@]12CC[C@@H](C)[C@H](C)[C@@H]1C1=CC[C@@H]3[C@@]4(C)C=C(O)C(=O)C(C)=C4CC[C@@]3(C)[C@]1(C)CC2 equals 28.2 µM

The recorded TGI for entry CCc1nc(N)nc(N)c1-c1ccc(Cl)c(N=NN(C)C)c1 equals > 92.1 µM

The recorded TGI for entry CSc1nc(=O)c(C#N)c(-c2ccccc2)n1C1OC(COC(C)=O)C(OC(C)=O)C(OC(C)=O)C1OC(C)=O (stereo unspecified) equals > 100 µM

The recorded TGI for entry O=[N+]([O-])c1ccc(Cl)cc1N/N=C/c1cccs1 equals > 100 µM

The recorded TGI for entry COc1ccc(Nc2c[nH]c(=O)[nH]c2=O)cc1 equals > 100 µM

The recorded TGI for entry CN1CCN(c2c(O)c3c(c(O)c2Cl)C(=O)C=CC3=O)CC1 equals 0.538 µM

* * *

System: RPMI-8226 leukemia
Assay: NCI tumour cell line growth inhibition, 48 h
For each of the molecules below, state its TGI.
State just the number; it will be interpreted in µM.

The recorded TGI for entry O=C1C(=O)c2c(nc3ncccn23)-c2ccccc21 equals 0.602

The recorded TGI for entry COc1ccc(-c2c(C#N)c(N)nc3c2CCCc2ccc(F)cc2-3)cc1OC equals 1.61

The recorded TGI for entry COC(=O)[C@H](Cc1ccccc1)NC(=O)[C@@H](OC)[C@@H]1Cc2cc3cc(OC4CC(OC5CC(O)C(O)C(C)O5)C(O)C(C)O4)c(C)c(O)c3c(O)c2C(=O)[C@H]1OC1CC(OC2CC(OC3CC(C)(O)C(O)C(C)O3)C(O)C(C)O2)C(O)C(C)O1 (some centres undefined) equals 0.073

The recorded TGI for entry CCOC(=O)/C=C(/C(=O)OCC)n1ccc(=O)[nH]c1=O equals 11.3

* * *

For each of the molecules below, state its GI50.
System: PC-3 prostate
Experiment: NCI tumour cell line growth inhibition, 48 h

The recorded GI50 for entry Clc1ccc(Nc2nc3ccccc3c3occc23)cc1 equals 7 µM

The recorded GI50 for entry COc1cc(/C=C/C(=O)c2cc(OC)c(OC)c(OC)c2)cc(OC)c1OC equals 5.32 µM

The recorded GI50 for entry CN1CCN(c2cc(Nc3cc(C4CC4)[nH]n3)nc(Nc3ccc(CC(=O)NCc4cccc(F)c4)cc3)n2)CC1 equals 0.616 µM

The recorded GI50 for entry CCOC(=O)c1cnc2c(cnn2CC)c1NN=C(C)C equals 37.5 µM

The recorded GI50 for entry COc1ccc2sc3c(NCCCNCCO)nc4ccccc4c3c(=O)c2c1 equals 1.58 µM

The recorded GI50 for entry C=C1C(=O)O[C@H]2[C@H]1CC(=O)/C(C)=C\CC[C@@]1(C)O[C@@H]21 equals 4.53 µg/mL

The recorded GI50 for entry C=C1CO[C@@H]2C[C@@H]1CCC1(C)OC1CC/C(C)=C/CC[C@@]2(C)O (some centres not stated) equals 18.5 µM

* * *

Tested on: KM12 colon
Assay: NCI tumour cell line growth inhibition, 48 h
Property measured: TGI (µM)
State just the number; it will be interpreted in µM.

The molecule CN1CCN(c2cc(Nc3cc(C4CC4)[nH]n3)nc(Nc3ccc(CC(=O)NCc4cccc(F)c4)cc3)n2)CC1 , tested on KM12 colon, showed TGI of 12.1

The molecule O=Cc1cc(O)c(O)c(/C=N/n2c3ccccc3c3ccccc32)c1 , tested on KM12 colon, showed TGI of 84.3

The molecule CC(C)C[C@H](NC(=O)[C@H](CCc1ccccc1)NC(=O)c1ccc2ccccc2n1)B(O)O , tested on KM12 colon, showed TGI of 0.295

The molecule COc1cc([C@@H]2c3cc4c(cc3[C@@H](Nc3ccc(NC(=O)c5cc(NC(=O)c6cc([N+](=O)[O-])cn6C)cn5C)cc3)[C@H]3COC(=O)[C@H]23)OCO4)cc(OC)c1O , tested on KM12 colon, showed TGI of 61.8

* * *

For each of the compounds below, state its GI50.
Tested on: SN12C renal
Experiment: NCI tumour cell line growth inhibition, 48 h

The compound Clc1ccc(-c2cn(-c3ccccc3)c(-c3ccccc3)n2)c(Cl)c1 , tested on SN12C renal, showed GI50 of 4.09 µM

The compound C#CC#CC#CC#CC#CC#CC#CC#CCC1OC[C@H](COC(=O)O[C@@H](C(=O)O[C@H]2C[C@@]3(O)[C@@H](OC(=O)c4ccccc4)[C@@H]4[C@]5(OC(C)=O)CO[C@@H]5C[C@H](O)[C@@]4(C)C(=O)[C@H](OC(C)=O)C(=C2C)C3(C)C)[C@@H](NC(=O)c2ccccc2)c2ccccc2)O1 (stereo partly drawn) , tested on SN12C renal, showed GI50 of 1.34 µM

The compound CC(C)[C@@H](CS(=O)(=O)C(C)C)N1C(=O)[C@@](C)(CC(=O)O)C[C@H](c2cccc(Cl)c2)[C@H]1c1ccc(Cl)cc1 , tested on SN12C renal, showed GI50 of 19.8 µM
